- target_desc: T1, recombinant human sclerostin (human, UniProt Q9BQB4 24-213)
- T1 construct: biotinylated in the ELISAs; also called hu sclerostin; hu scl
- T1 sequence: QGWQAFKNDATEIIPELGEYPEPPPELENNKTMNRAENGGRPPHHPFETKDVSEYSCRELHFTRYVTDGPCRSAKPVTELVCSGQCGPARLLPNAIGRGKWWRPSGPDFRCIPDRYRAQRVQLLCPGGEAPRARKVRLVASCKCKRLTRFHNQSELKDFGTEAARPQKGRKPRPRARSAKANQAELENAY
- method_notes: SPR

{"binder": "AE10-6-AM6 (antibody, V domains shown, converted into IgG; also called rHC + LC S4 clone 119) VH: EVQLVQSGAEVKKPGASVKVSCKVSGYTLSELSMHWVRQAPGKGLEWMGGFDPEGGETIYAQKFQGRVTMTEDTSTDTAYMELSSLRSEDTAVYYCATDTEGYWEKFFQHWGQGTLVTVSS VL: QAVVTQEPSLTVSPGGTVTLTCGSSTGAVTIDHYPYWFQQKPGQAPRTLISDTDDKHSWTPARFSGSLLGGKAALTLSGAQPEDEAEYYCLLDYGGTFVFGGGTKLTVL", "unit_name": "pM", "Kd": 1.3}
{"binder": "AE10-6-AM2 (antibody, V domains shown, converted into IgG; also called rHC + LC S4 clone 102) VH: EVQLVQSGAEVKKPGASVKVSCKVSGYTLTELSMHWVRQAPGKGLEWMGGFDPEAGETIYAQKFQGRVTMTEDTSTDTAYMELSSLRSEDTAVYYCATDGELYWYKFFQHWGQGTLVTVSS VL: QAVVTQEPSLTVSPGGTVTLTCGSSTGAVTIWHYPYWFQQKPGQAPRTLISDTNDKHSWTPARFSGSLLGGKAALTLSGAQPEDEAEYYCLLDYGGSFVFGGGTKLTVL", "unit_name": "pM", "Kd": 8.1}
{"binder": "AE10-6-AM3 (antibody, V domains shown, converted into IgG) VH: EVQLVQSGAEVKKPGASVKVSCKVSGYTLTELSMHWVRQAPGKGLEWMGGFDPEDGETIYAQKFQGRVTMTEDTSTDTAYMELSSLRSEDTAVYYCATDSAGYWYKFFQHWGQGTLVTVSS VL: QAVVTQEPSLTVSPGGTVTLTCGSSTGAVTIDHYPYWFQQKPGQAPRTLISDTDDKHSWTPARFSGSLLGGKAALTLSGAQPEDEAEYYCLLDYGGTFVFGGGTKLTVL", "unit_name": "pM", "Kd": 0.54}
